- measurementTarget: DNA topoisomerase 1 (Homo sapiens) (UniProt P11387)
- Sequence (P11387 whole entry): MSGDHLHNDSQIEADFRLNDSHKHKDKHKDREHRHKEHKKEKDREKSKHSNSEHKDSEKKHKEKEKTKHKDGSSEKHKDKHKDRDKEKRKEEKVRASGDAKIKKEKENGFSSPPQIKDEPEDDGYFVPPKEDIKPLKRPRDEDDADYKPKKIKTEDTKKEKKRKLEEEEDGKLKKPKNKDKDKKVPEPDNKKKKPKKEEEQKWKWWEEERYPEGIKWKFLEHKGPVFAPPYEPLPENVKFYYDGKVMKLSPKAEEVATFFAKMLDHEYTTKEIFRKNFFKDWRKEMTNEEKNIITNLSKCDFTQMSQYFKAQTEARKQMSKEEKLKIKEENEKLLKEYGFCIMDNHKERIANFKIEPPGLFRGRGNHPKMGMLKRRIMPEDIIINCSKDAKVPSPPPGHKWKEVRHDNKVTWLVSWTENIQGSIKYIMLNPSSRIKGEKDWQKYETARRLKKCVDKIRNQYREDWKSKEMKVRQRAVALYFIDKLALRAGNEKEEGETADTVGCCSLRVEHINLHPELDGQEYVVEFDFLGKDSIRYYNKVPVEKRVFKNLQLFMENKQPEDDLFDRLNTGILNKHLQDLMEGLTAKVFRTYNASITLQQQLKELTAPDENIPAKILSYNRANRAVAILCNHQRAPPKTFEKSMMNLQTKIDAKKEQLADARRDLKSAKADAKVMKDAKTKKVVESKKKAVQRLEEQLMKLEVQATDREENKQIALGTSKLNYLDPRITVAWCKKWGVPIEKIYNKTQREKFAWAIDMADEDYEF
- protocolDescription: Inhibition of human recombinant DNA topoisomerse 1 using pBR322 as substrate assessed as inhibition of conversion of supercoiled pBR322 to relaxed form at 20 uM after 30 mins by ethidium bromide staining-based electrophoresis analysis
quantity: inhibition (%)
Respond numerically; units are % and should not be typed.

Report inhibition for Oc1ccccc1-c1cc(-c2ccco2)c2c(n1)-c1ccccc1C2 2.4

====

- System: DU-145
- protocolDescription: Cytotoxicity against human DU145 cells incubated from day 2 to day 4 by CCK8 assay
- Format: functional, cell-based
quantity: IC50 (µM)
Respond numerically; units are µM and should not be typed.

Completed entries (count: 4):
                               smilesrecord  quantityunit  valuemeasured
0  c1ccc(-c2cc(-c3ccco3)c3c(n2)-c2ccccc2C3)cc1            µM              5
1  c1ccc(-c2cc(-c3ccoc3)c3c(n2)-c2ccccc2C3)cc1            µM           46.5
2  Oc1ccccc1-c1cc(-c2ccncc2)c2c(n1)-c1ccccc1C2            µM           39.6
3  Oc1cccc(-c2cc(-c3ccsc3)c3c(n2)-c2ccccc2C3)c1            µM            2.3

Here is the next item to consider.
Report IC50 for c1ccc(-c2cc(-c3ccsc3)c3c(n2)-c2ccccc2C3)cc1 1.62

====

- Tested on: HeLa
- protocolDescription: Cytotoxicity against human HeLa cells incubated from day 2 to day 4 by CCK8 assay
- Format: functional, cell-based
pIC50: −log10 of the molar value.
quantity: pIC50

                               smilesrecord  quantity  valuemeasured
0  Oc1cccc(-c2cc(-c3ccoc3)c3c(n2)-c2ccccc2C3)c1     pIC50           6.03
1  c1ccc(-c2cc(-c3ccncc3)c3c(n2)-c2ccccc2C3)cc1     pIC50         < 4.30
2  Oc1ccc(-c2cc(-c3ccncc3)c3c(n2)-c2ccccc2C3)cc1     pIC50         < 4.30
3  Oc1ccccc1-c1cc(-c2cccnc2)c2c(n1)-c1ccccc1C2     pIC50         < 4.30
4  Oc1ccc(-c2cc(-c3ccsc3)c3c(n2)-c2ccccc2C3)cc1     pIC50         < 4.30

Report pIC50 for c1ccc(-c2cc(-c3cccnc3)c3c(n2)-c2ccccc2C3)cc1 < 4.30

Report pIC50 for c1ccc(-c2cc(-c3cccs3)c3c(n2)-c2ccccc2C3)cc1 4.51

Report pIC50 for c1ccc(-c2cc(-c3ccccn3)c3c(n2)-c2ccccc2C3)cc1 4.73

Report pIC50 for c1ccc(-c2cc(-c3ccoc3)c3c(n2)-c2ccccc2C3)cc1 4.62

Report pIC50 for Oc1ccccc1-c1cc(-c2ccoc2)c2c(n1)-c1ccccc1C2 < 4.30

Report pIC50 for Oc1cccc(-c2cc(-c3ccsc3)c3c(n2)-c2ccccc2C3)c1 5.76

Report pIC50 for Oc1ccc(-c2cc(-c3ccccn3)c3c(n2)-c2ccccc2C3)cc1 < 4.30

====

In this section we review reported inhibition values for a set of compounds.
- measurementTarget: UniProt:P11387
- protocolDescription: Inhibition of human recombinant DNA topoisomerse 1 using pBR322 as substrate assessed as inhibition of conversion of supercoiled pBR322 to relaxed form at 100 uM after 30 mins by ethidium bromide staining-based electrophoresis analysis
Respond numerically; units are % and should not be typed.

Completed entries (count: 3):
In [3]: df
Out[3]:
                               smilesrecord  valuemeasured
0  Oc1ccc(-c2cc(-c3ccoc3)c3c(n2)-c2ccccc2C3)cc1           63.5
1  Oc1ccc(-c2cc(-c3ccncc3)c3c(n2)-c2ccccc2C3)cc1           72.4
2  c1ccc(-c2cc(-c3ccoc3)c3c(n2)-c2ccccc2C3)cc1              0

Give inhibition only, for Oc1ccc(-c2cc(-c3cccs3)c3c(n2)-c2ccccc2C3)cc1 , using UniProt:P11387 data. 69.1

Give inhibition only, for c1ccc(-c2cc(-c3ccncc3)c3c(n2)-c2ccccc2C3)cc1 , using UniProt:P11387 data. 3.3

Give inhibition only, for Oc1ccccc1-c1cc(-c2ccccn2)c2c(n1)-c1ccccc1C2 , using UniProt:P11387 data. 52.8

Give inhibition only, for Oc1cccc(-c2cc(-c3ccco3)c3c(n2)-c2ccccc2C3)c1 , using UniProt:P11387 data. 59.7

Give inhibition only, for Oc1ccccc1-c1cc(-c2ccco2)c2c(n1)-c1ccccc1C2 , using UniProt:P11387 data. 58.3

Give inhibition only, for Oc1cccc(-c2cc(-c3cccs3)c3c(n2)-c2ccccc2C3)c1 , using UniProt:P11387 data. 55.6

Give inhibition only, for Oc1ccccc1-c1cc(-c2cccnc2)c2c(n1)-c1ccccc1C2 , using UniProt:P11387 data. 70.9

Give inhibition only, for Oc1cccc(-c2cc(-c3ccoc3)c3c(n2)-c2ccccc2C3)c1 , using UniProt:P11387 data. 69.2

Give inhibition only, for Oc1ccccc1-c1cc(-c2ccsc2)c2c(n1)-c1ccccc1C2 , using UniProt:P11387 data. 87.8

Give inhibition only, for Oc1ccccc1-c1cc(-c2cccs2)c2c(n1)-c1ccccc1C2 , using UniProt:P11387 data. 51.1

Give inhibition only, for Oc1ccccc1-c1cc(-c2ccncc2)c2c(n1)-c1ccccc1C2 , using UniProt:P11387 data. 68.7

Give inhibition only, for c1ccc(-c2cc(-c3ccccn3)c3c(n2)-c2ccccc2C3)cc1 , using UniProt:P11387 data. 3.6

Give inhibition only, for c1ccc(-c2cc(-c3cccnc3)c3c(n2)-c2ccccc2C3)cc1 , using UniProt:P11387 data. 4.1

Give inhibition only, for Oc1ccc(-c2cc(-c3ccccn3)c3c(n2)-c2ccccc2C3)cc1 , using UniProt:P11387 data. 61.2
